- Tested on: RPMI-8226 leukemia
- assay overview: NCI-60 one-dose screen, 48 h
- study conditions: 10 µM unless noted
About 83,000 compounds went through this panel and 20% of them were active in at least one assay; those are over-represented in the sample as a whole. Activity calls are given as the source filed them. The calls were made as follows: active = growth percent below 10; inactive = the rest.
Possible outcomes: true = active, false = inactive

                                    compound  assigned_label
 0            Oc1c(N=Nc2nn[nH]n2)ccc2ccccc12           false
 1     CC(C)CNc1nc(N=[N+]=[N-])nc(NCC(C)C)n1           false
 2           O=C(Nc1cccc(Cl)c1)Nc1cccc(Cl)c1            true
 3  CCN(Cc1cccc(S(=O)(=O)[O-])c1)c1ccc(C(=C2C=CC(=[N+](CC)Cc3cccc(S(=O)(=O)O)c3)C=C2)c2ccccc2S(=O)(=O)O)cc1           false
 4  O=C(CN1CCN(c2ccc(Cl)cc2)CC1)N1CCN(c2nnc(-c3ccccc3)c(-c3ccccc3)n2)CC1            true
 5  BrC1CC(Br)c2c1c1c(c3c2C(Br)CC3Br)C(Br)CC1Br (stereo unspecified)           false
 6  O=C1C(=O)/C(=C/c2ccccc2)CCCCCC/C1=C/c1ccccc1            true
 7           O=C(N/N=C/c1cccc(O)c1O)c1ccccc1           false
 8  CCCCCCC(CC#N)(CCC)CCCC (stereo unspecified)           false
 9                         O=Cc1ccccc1C(=O)O           false
10  O=C(Nc1nn2c(-c3cc(C(F)(F)F)cc(C(F)(F)F)c3)nnc2s1)C1CCCC1           false
11  COc1ccc(CNC(=O)c2c(C)n([O-])c3cc(F)c(F)cc3[n+]2=O)cc1           false
12     CCSc1ncc(Br)c(Sc2nc(N)nc3nc[nH]c23)n1           false
13  Cc1cc2c(cc1C)[n+](Cc1ccc3ccccc3n1)cn2Cc1ccc2ccccc2n1            true
14  Cc1ccc(S(=O)(=O)N2CCN(C(=O)CSc3nc4ccc(C)cc4[nH]3)CC2)cc1           false
15         c1ccc2c(-c3nc4ccccc4[nH]3)cccc2c1           false
16  c1ccc(COc2ccc(Nc3ncnc4c3cnn4-c3ccccc3)cc2)cc1           false
17  Cc1cc(Cl)ccc1Nc1nc(C(F)(F)F)ccc1C(=O)N/N=C/c1ccc(Cl)cc1            true
18  CCSc1nc(Nc2ccc(S(=O)(=O)Nc3ccon3)cc2)c(C#N)c(-c2cccc(Br)c2)n1           false
19  CC(=O)[C@H]1CC[C@H]2[C@@H]3C[C@H](C)C4=CC(=O)CC[C@]4(C)[C@H]3C(=O)C[C@]12C           false
20  O=c1[nH]c(N2CCC(Cc3ccccc3)CC2)nc2sc3c(c12)CCCC3           false

* * *

- Test system: SR leukemia
- assay overview: NCI-60 one-dose screen, 48 h
- study conditions: 10 µM unless noted
The panel holds about 83,000 compounds, 20% with a hit somewhere; the sample as a whole holds those more often. Active and inactive are the calls of the source. The calls were made as follows: active = growth percent below 10; inactive = the rest.
Possible outcomes: True for active, False for inactive

In [3]: df
Out[3]:
                                    compound  assigned_label
 0    N/C(=N\c1nc2ccccc2s1)NC(=O)Nc1ccccc1Cl            True
 1  O=C1C(=O)/C(=C/c2ccccc2)CCCCCC/C1=C/c1ccccc1            True
 2  CCCCN=C(N)c1ccc(OCCSCCOc2ccc(C(N)=NCCCC)cc2)cc1           False
 3  CC(C)=CCNc1ncnc2c1ncn2C1OC(COP(=O)(O)O)C(O)C1O (stereo unspecified)            True
 4  Nc1ccc(Oc2c(F)c(F)c(Oc3ccc(N)cc3)c(F)c2F)cc1           False
 5        Cc1ccc(/C=C(/C#N)n2nnc3ncccc32)cc1           False
 6  N#Cc1c(-c2ccccc2)cc(-c2ccccc2)n(CC(=O)O)c1=O           False
 7                         O=Cc1ccccc1C(=O)O           False
 8  O=[N+]([O-])c1ccc2[nH]cc(-c3c4ccccc4cc4[nH]c5ccc([N+](=O)[O-])cc5c34)c2c1           False
 9          CCC(=O)Nc1cc2c(cc1Cl)-c1ccccc1C2           False
10  Oc1c(Cl)cc(Oc2cc(Cl)c(O)c(CN3CCOCC3)c2)cc1CN1CCOCC1           False

* * *

- System: NCI-H23 lung
- assay overview: NCI-60 one-dose screen, 48 h
- study conditions: 10 µM unless noted
- Procedure: Growth inhibition of the NCI-H23 human Non-Small Cell Lung tumor cell line is measured as a screen for anti-cancer activity. Cells are grown in 96 well plates and exposed to the test compound for 48 hours. Compounds are tested at a single concentration, which is 10^-5 M for most compounds. The reported endpoint is percent growth (GI% or GIPRCNT), where numbers from 0 - 100% represent growth inhibition, and numbers from -100% - 0 represent cell death. […]
The panel holds about 83,000 compounds, 20% with a hit somewhere; the sample as a whole holds those more often. Calls of active or inactive are those of the source. How the source made its calls: active means growth percent below 10; inactive means the rest.
Possible outcomes: yes = active, no = inactive

>>> df
                                    molecule  assigned_label
 0  Cn1cnc([N+](=O)[O-])c1Sc1nc(N)nc2nc[nH]c12              no
 1      O=C1C=CC(=O)N1c1ccccc1N1C(=O)C=CC1=O              no
 2         CN(C)c1ccc(-c2nc3ncc(Br)cc3o2)cc1              no
 3  COc1ccc2c(c1)[n+](=O)c(C(=O)/C=C/c1cc(OC)c(OC)c(OC)c1)c(C)n2[O-]              no
 4  N#Cc1c(-c2ccccc2)cc(-c2ccccc2)n(CC(=O)O)c1=O              no
 5  COc1cnc2c(c1)C(=O)c1c-2n(CCCNC(C)C)c(=O)c2cc(F)ccc12             yes
 6  CN1CCN(CCCCCN=c2cc3c(=O)n(CCCCCN4CCN(C)CC4)c(=O)c4c(NCCCCCN5CCN(C)CC5)cc5c(O)n(CCCCCN6CCN(C)CC6)c(=O)c2c5c4-3)CC1              no
 7  O=C1c2cccc(NCCN=Cc3ccccc3O)c2C(=O)c2c(NCCN=Cc3ccccc3O)cccc21              no
 8  COc1cc(C(=O)/C=C/c2cccc(Nc3ccnc4cc(Cl)ccc34)c2)cc(OC)c1OC              no
 9  Nc1nc(Nc2ccccc2SSc2ccccc2Nc2nc(N)nc(C(Cl)(Cl)Cl)n2)nc(C(Cl)(Cl)Cl)n1              no
10  COP(=O)(OC)C(c1ccc(O)cc1)(c1ccc(O)cc1)c1ccc(O)cc1              no
11  C[C@]12CCC(=O)C=C1CCC1C2[C@@H](O)C[C@@]2(C)C1CC[C@]2(O)C(=O)COC(=O)CCC(=O)O (some centres undefined)              no
12  CC(=O)O[C@H]1CC[C@@]2(C)C(=CC[C@@H]3[C@@H]2CC[C@]2(C)C(c4cccnc4)=CC[C@@H]32)C1              no
13  COc1cc(C2CC(c3ccc(C)cc3)=NN2C=O)ccc1OCCN(C)C (centres undefined)              no
14  O=C(COc1cccc(/C=C2\Oc3ccc4ccccc4c3C2=O)c1)c1ccc([N+](=O)[O-])cc1              no
15  O=C(Oc1cccc2ccccc12)c1ccccc1C(=O)c1ccccc1              no
16  COc1ccc(-n2cnc3cc(C(=O)N4CCCCC4)ccc32)cc1              no
17          COc1ccc(/C=C2\CCc3ccccc3C2=O)cc1              no
18  COc1cc(-c2nc3nc4sc(C)c(C)c4c(=O)n3[nH]2)cc(OC)c1OC              no

* * *

- System: OVCAR-5 ovarian
- assay overview: NCI-60 one-dose screen, 48 h
- study conditions: 10 µM unless noted
Compounds without any hit were thinned out: in the full panel of roughly 83,000, 20% have a hit. The source made the active and inactive calls. The calls were made as follows: active = growth percent below 10; inactive = the rest.
Possible outcomes: Yes = active, No = inactive

compound	assigned label
Cc1cc(Cl)ccc1Nc1nc(C(F)(F)F)ccc1C(=O)N/N=C/c1ccc(Cl)cc1	Yes
COc1ccc([N+](=O)[O-])c(S(=O)(=O)c2ccc(Cl)cc2)n1	No
Cc1c2oc3c(C)ccc(C(=O)OC(C)C4NC(=O)C(C(C)C)N(C)C(=O)CN(C)C(=O)C5CCCN5C(=O)C(C(C)C)NC4=O)c3nc-2c(C(=O)OC(C)C2NC(=O)C(C(C)C)N(C)C(=O)CN(C)C(=O)C3CCCN3C(=O)C(C(C)C)NC2=O)c(N)c1=O (centres undefined)	No
CC1C(=O)NC2=Nc3ccccc3C(=O)NN21 (centres undefined)	No
CC1CN(/N=C/c2ccc([N+](=O)[O-])o2)C(=N)O1 (centres undefined)	No
COc1ccc(C2CC(c3ccc4c(c3)OCO4)=NN2C=O)cc1 (centres undefined)	No
O=C1OC2(c3ccccc31)c1ccccc1-c1ccccc12	No
NC(=O)c1cc(Cl)ccc1NC(=O)c1ccccc1-c1ccccc1	No
COc1ccc(Oc2ccccc2NC(=O)CNC(=O)c2cccc3ccccc23)cc1	No
